Where do these numbers come from? They come from paper PMC6270845.

Tested on: Plutella larvae
Procedure summary: Insecticidal activity, leaf-dip bioassay
Measurement setup: fourth instar larvae, cabbage leaf-dip, mortality after 96 h
Experimental endpoint: LC50 (95%CL)

Cc1cc(C#N)cc(C(=O)NCc2cn(-c3cc4ccc(O)cc4oc3=O)nn2)c1NC(=O)c1cc(Br)nn1-c1ncccc1Cl ... 7.57(4.57–11.77) ppm
C#CCNC(=O)c1cc(Cl)cc(C)c1NC(=O)c1cc(Br)nn1-c1ncccc1Cl ... 0.080(0.024–0.152) ppm
C#CCNC(=O)c1cc(C#N)cc(C)c1NC(=O)c1cc(Br)nn1-c1ncccc1Cl ... 0.34(0.24–0.43) ppm
CNC(=O)c1cc(C#N)cc(C)c1NC(=O)c1cc(Br)nn1-c1ncccc1Cl ... 0.061(0.035–0.086) ppm
CNC(=O)c1cc(Cl)cc(C)c1NC(=O)c1cc(Br)nn1-c1ncccc1Cl ... 0.033(0.006–0.059) ppm

Moving on to another molecule below.
State its LC50 (95%CL) for this molecule: Cc1cc(C(F)(C(F)(F)F)C(F)(F)F)ccc1NC(=O)c1cccc(I)c1C(=O)NC(C)(C)CS(C)(=O)=O [Flu, flubendiamide, reference compound] 0.056(0.037–0.068) ppm
